Listed molecules paired with reported composite z-score
ASSAYED TARGET: Neurogenic locus notch homolog protein 2 (Homo sapiens) (UniProt Q04721)
Sequence (Q04721 whole entry, looked up): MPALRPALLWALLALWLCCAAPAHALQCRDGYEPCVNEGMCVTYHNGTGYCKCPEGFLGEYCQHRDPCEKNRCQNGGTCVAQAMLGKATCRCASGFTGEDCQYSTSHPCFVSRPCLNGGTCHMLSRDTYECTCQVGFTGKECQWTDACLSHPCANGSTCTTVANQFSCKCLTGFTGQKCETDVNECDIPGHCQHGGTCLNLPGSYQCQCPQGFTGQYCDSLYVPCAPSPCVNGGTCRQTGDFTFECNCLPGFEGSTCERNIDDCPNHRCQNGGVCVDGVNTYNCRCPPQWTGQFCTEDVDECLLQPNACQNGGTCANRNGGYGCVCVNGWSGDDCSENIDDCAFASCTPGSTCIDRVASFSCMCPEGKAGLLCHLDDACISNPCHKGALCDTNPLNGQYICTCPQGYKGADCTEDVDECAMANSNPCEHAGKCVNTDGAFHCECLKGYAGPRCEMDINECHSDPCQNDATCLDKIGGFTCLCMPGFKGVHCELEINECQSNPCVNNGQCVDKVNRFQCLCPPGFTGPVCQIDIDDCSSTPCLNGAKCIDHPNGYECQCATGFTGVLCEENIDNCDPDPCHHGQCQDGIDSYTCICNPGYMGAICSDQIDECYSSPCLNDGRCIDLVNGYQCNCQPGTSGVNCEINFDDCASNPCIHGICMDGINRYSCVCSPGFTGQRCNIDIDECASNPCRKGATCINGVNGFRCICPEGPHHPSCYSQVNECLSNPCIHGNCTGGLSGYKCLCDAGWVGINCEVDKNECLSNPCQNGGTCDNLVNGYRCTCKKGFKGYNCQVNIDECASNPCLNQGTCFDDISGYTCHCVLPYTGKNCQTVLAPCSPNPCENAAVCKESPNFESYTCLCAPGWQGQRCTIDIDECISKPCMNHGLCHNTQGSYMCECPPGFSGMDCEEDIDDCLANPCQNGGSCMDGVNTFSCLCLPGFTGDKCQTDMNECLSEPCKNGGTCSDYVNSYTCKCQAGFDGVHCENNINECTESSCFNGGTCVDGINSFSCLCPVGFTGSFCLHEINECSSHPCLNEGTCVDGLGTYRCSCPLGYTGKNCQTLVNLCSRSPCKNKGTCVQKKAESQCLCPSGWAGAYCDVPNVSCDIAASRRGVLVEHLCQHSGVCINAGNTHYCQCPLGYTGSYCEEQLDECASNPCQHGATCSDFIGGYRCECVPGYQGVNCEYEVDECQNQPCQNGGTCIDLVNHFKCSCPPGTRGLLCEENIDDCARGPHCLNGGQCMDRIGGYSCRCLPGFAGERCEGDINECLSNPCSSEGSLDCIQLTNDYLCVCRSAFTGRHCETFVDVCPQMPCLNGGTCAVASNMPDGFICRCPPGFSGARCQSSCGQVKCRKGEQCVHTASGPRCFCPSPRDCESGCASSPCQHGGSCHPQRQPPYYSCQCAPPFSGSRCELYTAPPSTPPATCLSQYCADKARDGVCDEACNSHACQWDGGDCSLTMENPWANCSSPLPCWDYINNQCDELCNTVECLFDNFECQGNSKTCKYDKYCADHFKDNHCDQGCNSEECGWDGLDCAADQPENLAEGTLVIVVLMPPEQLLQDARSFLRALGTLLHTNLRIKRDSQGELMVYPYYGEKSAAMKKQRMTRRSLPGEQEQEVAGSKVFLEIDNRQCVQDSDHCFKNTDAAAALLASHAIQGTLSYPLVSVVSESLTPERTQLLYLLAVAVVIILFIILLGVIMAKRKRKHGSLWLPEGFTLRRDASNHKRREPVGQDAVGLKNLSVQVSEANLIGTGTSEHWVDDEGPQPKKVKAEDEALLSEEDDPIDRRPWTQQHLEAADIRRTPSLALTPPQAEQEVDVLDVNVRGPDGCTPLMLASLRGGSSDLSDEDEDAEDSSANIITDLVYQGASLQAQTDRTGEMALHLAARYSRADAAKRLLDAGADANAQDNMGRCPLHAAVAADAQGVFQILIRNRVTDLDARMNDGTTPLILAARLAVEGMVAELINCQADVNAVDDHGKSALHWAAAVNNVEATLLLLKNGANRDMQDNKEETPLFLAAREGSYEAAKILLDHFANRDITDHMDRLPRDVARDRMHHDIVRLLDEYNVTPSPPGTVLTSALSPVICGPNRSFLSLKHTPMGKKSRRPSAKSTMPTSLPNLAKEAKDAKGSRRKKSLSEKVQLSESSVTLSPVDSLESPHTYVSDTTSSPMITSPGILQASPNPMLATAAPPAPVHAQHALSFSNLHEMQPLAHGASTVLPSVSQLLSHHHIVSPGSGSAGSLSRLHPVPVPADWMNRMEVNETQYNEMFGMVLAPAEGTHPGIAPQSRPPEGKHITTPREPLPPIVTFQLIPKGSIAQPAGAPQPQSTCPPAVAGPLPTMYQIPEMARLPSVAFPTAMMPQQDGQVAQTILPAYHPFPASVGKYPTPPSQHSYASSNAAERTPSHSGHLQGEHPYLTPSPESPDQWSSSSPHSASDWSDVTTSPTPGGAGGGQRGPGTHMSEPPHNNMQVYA
EXPERIMENT: Notch2 binders on small-molecule microarrays, primary screen, biochemical, small-molecule microarray, 635 nm fluorescence, stem cell growth factors (AID 1073)
CONDITION PARAMETERS: Notch2 binding, higher = more signal
Lab note: jot down the number only; don't add units.

Below: 10 molecules and their reported composite z-score.
Log: Neurogenic locus notch homolog protein 2 (Homo sapiens) (UniProt Q04721), molecule O[C@@H](Cc1ccccc1)[C@H]1C2C=CCCC(c3ccccc3)=C2CN1Cc1cccc(Cl)c1 (some centres undefined) , composite z-score = 0.799

Log: Neurogenic locus notch homolog protein 2 (Homo sapiens) (UniProt Q04721), molecule CN(C)c1ccc(C(O)C2C=CC3C(=O)N(c4ccccc4)C(=O)C3N2Nc2ccccc2F)cc1 (centres undefined) , composite z-score = 1.46

Log: Neurogenic locus notch homolog protein 2 (Homo sapiens) (UniProt Q04721), molecule `CCN1C(=O)[C@H]2[C@H]3[C@H](O)[C@H](O)CC(=NOCC=C(C)CCC=C(C)C)[C@H]3CC[C@H]2C1=O` , composite z-score = 0.698

Log: Neurogenic locus notch homolog protein 2 (Homo sapiens) (UniProt Q04721), molecule `CC(C)(C)N1C(=O)[C@H]2[C@H]3[C@H](O)[C@H](O)CC(=NO[C@@H]4O[C@H](CO)[C@@H](O)[C@H](O)[C@H]4O)[C@@H]3CC[C@H]2C1=O` , composite z-score = 0.572

Log: Neurogenic locus notch homolog protein 2 (Homo sapiens) (UniProt Q04721), molecule `C=CC[C@]1(C(=O)NCc2ccccc2)N=C(c2ccc(OCCCO)cc2)O[C@H]1c1ccccc1` , composite z-score = 0.007

Log: Neurogenic locus notch homolog protein 2 (Homo sapiens) (UniProt Q04721), molecule `CC(=O)OC[C@H]1O[C@H](CC=NOC[C@@H](C)[C@H](OCc2ccccc2)C(C)C)C=C[C@@H]1OC(C)=O` , composite z-score = -0.0224

Log: Neurogenic locus notch homolog protein 2 (Homo sapiens) (UniProt Q04721), molecule `COC(=O)C1=C(C)N(Cc2ccccc2)[C@]23O[C@](C(=O)OC)(C(=O)N2[C@@H]1c1ccccc1)[C@H]1CCOC(=O)[C@H]13` , composite z-score = 0.783

Log: Neurogenic locus notch homolog protein 2 (Homo sapiens) (UniProt Q04721), molecule `O=C1O[C@@H](c2ccccc2)[C@@H](c2ccccc2)N2[C@@H](c3ccc(OCCO)cc3)[C@]3(C(=O)Nc4ccccc43)[C@@H](C(=O)N3CCN(c4ncccn4)CC3)[C@H]12` , composite z-score = 1.25

Log: Neurogenic locus notch homolog protein 2 (Homo sapiens) (UniProt Q04721), molecule COC(=O)[C@H](C)NC(=O)CCC1CC(OC(=O)NCc2ccc3c(c2)OCO3)CC2(CCCC(COC(=O)NCCOc3ccccc3)O2)O1 (some centres undefined) , composite z-score = 1.06

Log: Neurogenic locus notch homolog protein 2 (Homo sapiens) (UniProt Q04721), molecule `CCOC(=O)CCN1C(=O)[C@H]2[C@H]3[C@H](O)[C@H](O)CC(=NOC[C@@H](O)COCc4ccco4)[C@H]3CC[C@H]2C1=O` , composite z-score = 0.722

Continuing:
Log: Neurogenic locus notch homolog protein 2 (Homo sapiens) (UniProt Q04721), molecule `CCOC(=O)CCN1C(=O)[C@H]2[C@H]3[C@H](O)[C@H](O)CC(=NOCc4ccccc4)[C@@H]3CC[C@H]2C1=O` , composite z-score = 0.93

Log: Neurogenic locus notch homolog protein 2 (Homo sapiens) (UniProt Q04721), molecule CS(=O)(=O)CCOC(=O)C1=CC(CCCO)=CC(c2cccs2)N(Cc2cccc(OC(F)(F)F)c2)C=C1C(=O)OCCS(C)(=O)=O (centres undefined) , composite z-score = 1.14

Log: Neurogenic locus notch homolog protein 2 (Homo sapiens) (UniProt Q04721), molecule `COC(=O)[C@@]1(Cc2ccc(F)cc2)[C@H]2c3cc(C(=O)N(C)C)n(Cc4ccc(OC)c(OC)c4)c3C[C@H]2CN1C(=O)c1ccccc1` , composite z-score = 1.56

Log: Neurogenic locus notch homolog protein 2 (Homo sapiens) (UniProt Q04721), molecule `COCCCNC(=O)[C@]1(Cc2ccccc2)N=C(c2ccc(OCCCO)cc2)O[C@@H]1c1ccccc1` , composite z-score = 0.967
